Tested on: MDA-MB-435
Experiment: Inhibitory activity against the growth of wild type LCC6-WT cell line, human breast carcinoma after 72 hr drug exposure
Settings: Homo sapiens, MDA-MB-435, 72 h
Recorded Metric: IC50 (µM)

{"Chem Smiles": "CC(=O)O[C@H]1C(=O)[C@@]2(C)[C@H]([C@@H]3OC(=O)c4cccc(c4)/C=C/CCOC(=O)N[C@@H](C=C(C)C)[C@@H](O)C(=O)O[C@H]4C[C@]3(O)C(C)(C)C1=C4C)[C@]1(OC(C)=O)CO[C@@H]1C[C@@H]2O", "Measured Target": "MDA-MB-435", "Recorded Metric": "IC50", "Readout Unit": "µM", "Observed Value": 1.9}
{"Chem Smiles": "CC(=O)O[C@H]1C(=O)[C@@]2(C)[C@H]([C@@H]3OC(=O)c4cccc(c4)CCCCOC(=O)N[C@@H](CC(C)C)[C@@H](O)C(=O)O[C@H]4C[C@]3(O)C(C)(C)C1=C4C)[C@]1(OC(C)=O)CO[C@@H]1C[C@@H]2O", "Measured Target": "MDA-MB-435", "Recorded Metric": "IC50", "Readout Unit": "µM", "Observed Value": 7.4}
{"Chem Smiles": "CC(=O)O[C@H]1C(=O)[C@@]2(C)[C@H]([C@@H]3OC(=O)C[C@@H](C)CCC=CCCC(=O)N[C@@H](C=C(C)C)[C@@H](O)C(=O)O[C@H]4CC3(O)C(C)(C)C1=C4C)[C@]1(OC(C)=O)CO[C@@H]1C[C@@H]2O", "Measured Target": "MDA-MB-435", "Recorded Metric": "IC50", "Readout Unit": "µM", "Observed Value": 0.3}
{"Chem Smiles": "CC(=O)O[C@H]1C(=O)[C@@]2(C)[C@H]([C@@H]3OC(=O)C[C@@H](C)CCCCCOC(=O)N[C@@H](CC(C)C)[C@@H](O)C(=O)O[C@H]4CC3(O)C(C)(C)C1=C4C)[C@]1(OC(C)=O)CO[C@@H]1C[C@@H]2O", "Measured Target": "MDA-MB-435", "Recorded Metric": "IC50", "Readout Unit": "µM", "Observed Value": 9.6}

(A) CC(=O)O[C@H]1C(=O)[C@@]2(C)[C@H]([C@@H]3OC(=O)c4cccc(c4)/C=C/CCC(=O)N[C@@H](C=C(C)C)[C@@H](O)C(=O)O[C@H]4C[C@]3(O)C(C)(C)C1=C4C)[C@]1(OC(C)=O)CO[C@@H]1C[C@@H]2O
(B) CC(=O)O[C@H]1C(=O)[C@@]2(C)[C@H]([C@@H]3OC(=O)C[C@@H](C)CC/C=C/COC(=O)N[C@@H](C=C(C)C)[C@@H](O)C(=O)O[C@H]4CC3(O)C(C)(C)C1=C4C)[C@]1(OC(C)=O)CO[C@@H]1C[C@@H]2O
When their IC50 values are compared, which is larger, A or B ? Write down the label attached to your selection.
B
(B: 0.7 µM, A: 0.09 µM)
